Where these numbers come from: the supplement of paper PMC7877785

The following sequences are listed with their measured self-splicing fitness (ln) values.
experiment: self-splicing fitness, log relative to wild type (ln ratio); higher = more splicing; Tetrahymena group I intron in knt gene, E. coli kanamycin selection, DiMSum; sequences stand for … in CUCUCU…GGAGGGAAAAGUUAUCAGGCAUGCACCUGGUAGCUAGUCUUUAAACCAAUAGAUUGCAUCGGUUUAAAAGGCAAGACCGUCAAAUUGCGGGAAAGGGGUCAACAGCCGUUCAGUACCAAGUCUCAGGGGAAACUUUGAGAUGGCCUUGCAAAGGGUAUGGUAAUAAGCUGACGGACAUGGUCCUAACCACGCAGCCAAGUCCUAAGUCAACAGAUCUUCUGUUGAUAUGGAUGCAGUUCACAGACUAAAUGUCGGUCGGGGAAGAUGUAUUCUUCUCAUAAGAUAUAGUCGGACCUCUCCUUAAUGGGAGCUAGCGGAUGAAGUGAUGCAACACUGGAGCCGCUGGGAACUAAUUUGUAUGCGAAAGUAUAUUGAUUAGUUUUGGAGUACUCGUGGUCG; details: 30 °C;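 also: selection with 25 µg/mL kanamycin versus none on LB agar overnight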

| residueSequence | self-splicing fitness (ln) |
| --- | --- |
| CGCCAGCAAUAUUACGUUCG | -1.18 |
| CCCCAGCAAUAUUACGGUCC | -3.86 |
| CGCAAGCAAUAUUACGCGUA | -3.47 |
| ACCGAGCAAUAUUACGCUGC | -2.73 |
| CCUGAGCAAUAUUACGGCGA | -3.62 |
| GCUUAGCAAUAUUACGACGA | -0.927 |
| CGCUAGCAAUAUUACGGUCA | -0.0527 |
| CCUUAGCAAUAUUACGCCGU | -2.66 |
| UACGAGCAAUAUUACGCAAA | -2.36 |
| CAAGAGCAAUAUUACGGAUG | -2.89 |
| UAUAAGCAAUAUUACGUUCU | -1.03 |
| CUGGAGCAAUAUUACGAGCG | -1.05 |
| CGAUAGCAAUAUUACGUCGA | -3.77 |
| CCGGAGCAAUAUUACGCCUA | -2.12 |
| UACCAGCAAUAUUACGAGGC | -4.87 |
| CCACAGCAAUAUUACGGGCC | -4.14 |
| CGCAAGCAAUAUUACGUUUG | -4.31 |

---

Recorded self-splicing fitness (ln) by entry
experiment: self-splicing fitness, log relative to wild type (ln ratio); higher = more splicing; Tetrahymena group I intron in knt gene, E. coli kanamycin selection, DiMSum; sequences stand for … in CUCUCU…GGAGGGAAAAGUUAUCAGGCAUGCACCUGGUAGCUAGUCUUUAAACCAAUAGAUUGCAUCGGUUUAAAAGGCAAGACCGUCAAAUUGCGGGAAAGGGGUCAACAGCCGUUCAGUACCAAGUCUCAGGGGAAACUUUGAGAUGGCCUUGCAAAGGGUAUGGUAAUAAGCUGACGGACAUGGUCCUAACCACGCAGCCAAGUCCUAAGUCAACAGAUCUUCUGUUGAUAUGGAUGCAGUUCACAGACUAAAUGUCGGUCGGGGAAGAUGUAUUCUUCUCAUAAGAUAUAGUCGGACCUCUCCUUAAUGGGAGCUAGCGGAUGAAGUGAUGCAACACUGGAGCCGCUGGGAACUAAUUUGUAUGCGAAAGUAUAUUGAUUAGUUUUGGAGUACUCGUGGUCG; conditions: 37 °C

| residueSequence | self-splicing fitness (ln) |
| --- | --- |
| UGUCAGCAAUAUUACGGAAA | -0.145 |
| AGAGAGCAAUAUUACGGACG | -1.61 |
| CCUGAGCAAUAUUACGCUAA | -2.88 |
| GCAGAGCAAUAUUACGGGCC | -0.867 |
| UGAUAGCAAUAUUACGUGGA | -2.23 |
| CAAGAGCAAUAUUACGUGCU | -2.36 |
| ACCCAGCAAUAUUACGCUCC | -0.338 |
| CCACAGCAAUAUUACGAACU | -3.23 |
| ACUAAGCAAUAUUACGCACU | -0.417 |
| AUCUAGCAAUAUUACGUGAG | -0.00344 |

---

experiment: self-splicing fitness, log relative to wild type (ln ratio); higher = more splicing; Tetrahymena group I intron in knt gene, E. coli kanamycin selection, DiMSum; sequences stand for … in CUCUCU…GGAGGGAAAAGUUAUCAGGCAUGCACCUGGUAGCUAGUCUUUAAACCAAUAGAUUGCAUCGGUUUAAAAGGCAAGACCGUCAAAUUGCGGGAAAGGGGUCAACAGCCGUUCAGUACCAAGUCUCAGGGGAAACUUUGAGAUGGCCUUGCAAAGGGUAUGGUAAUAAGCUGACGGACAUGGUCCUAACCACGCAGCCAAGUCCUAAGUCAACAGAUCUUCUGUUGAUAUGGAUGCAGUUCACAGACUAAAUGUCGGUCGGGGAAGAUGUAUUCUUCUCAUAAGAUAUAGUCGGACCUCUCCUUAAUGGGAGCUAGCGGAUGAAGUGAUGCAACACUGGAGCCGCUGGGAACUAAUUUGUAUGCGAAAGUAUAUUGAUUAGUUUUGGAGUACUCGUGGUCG; conditions: 37 °C
Parameter threshold = -2. Response is rule met when self-splicing fitness (ln) meets or exceeds it, else rule not met.

| residueSequence | answerLabel |
| --- | --- |
| CUUAAGCAAUAUUACGUAUG | rule met |
| AGUCAGCAAUAUUACGGAGC | rule met |
| GCUCAGCAAUAUUACGUAAC | rule met |
| GCGUAGCAAUAUUACGAAAA | rule met |
| AGUGAGCAAUAUUACGUAAC | rule met |
| UUCAAGCAAUAUUACGGGCU | rule met |
| UUGUAGCAAUAUUACGAAGU | rule not met |
| CGCUAGCAAUAUUACGUACA | rule met |
| UUCGAGCAAUAUUACGUCGA | rule met |
| GAGCAGCAAUAUUACGCCUU | rule met |
| AUUUAGCAAUAUUACGAAAG | rule met |
| AGAAAGCAAUAUUACGUAGG | rule not met |
| AUGGAGCAAUAUUACGUUGU | rule not met |
| GGACAGCAAUAUUACGUCUU | rule met |
| GUAUAGCAAUAUUACGGGAA | rule not met |
| CCGGAGCAAUAUUACGGCGU | rule not met |
| UUUCAGCAAUAUUACGCCUC | rule met |
| UUCUAGCAAUAUUACGCAAA | rule met |
| GGAAAGCAAUAUUACGCGAC | rule met |
| GUUCAGCAAUAUUACGUAUG | rule met |
| UAUCAGCAAUAUUACGACCC | rule met |
| GCAGAGCAAUAUUACGCCUG | rule met |
| ACUGAGCAAUAUUACGAUGA | rule met |
| UCUAAGCAAUAUUACGAGUU | rule not met |

---

assay: self-splicing fitness, log relative to wild type (ln ratio); higher = more splicing; Tetrahymena group I intron in knt gene, E. coli kanamycin selection, DiMSum; sequences stand for … in CUCUCU…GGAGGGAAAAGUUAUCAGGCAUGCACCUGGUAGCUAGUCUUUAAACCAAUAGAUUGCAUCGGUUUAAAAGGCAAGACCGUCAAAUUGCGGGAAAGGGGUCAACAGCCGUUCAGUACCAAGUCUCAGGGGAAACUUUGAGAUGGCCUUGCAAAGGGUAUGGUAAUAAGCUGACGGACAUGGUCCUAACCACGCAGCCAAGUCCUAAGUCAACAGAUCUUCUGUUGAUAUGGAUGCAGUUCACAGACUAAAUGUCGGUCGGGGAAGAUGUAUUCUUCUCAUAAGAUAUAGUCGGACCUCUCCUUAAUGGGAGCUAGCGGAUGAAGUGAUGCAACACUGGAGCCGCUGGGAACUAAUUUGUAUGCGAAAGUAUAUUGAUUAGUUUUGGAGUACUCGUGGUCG; settings: 37 °C
// reported self-splicing fitness (ln) per item
measuredAttribute: self-splicing fitness (ln)

| residueSequence | measuredAttribute | quantitativeReadout |
| --- | --- | --- |
| ACGAAGCAAUAUUACGUCUG | self-splicing fitness (ln) | -0.997 |
| ACGGAGCAAUAUUACGCUUU | self-splicing fitness (ln) | -1.98 |
| CUUGAGCAAUAUUACGCUUC | self-splicing fitness (ln) | -1.96 |

---

assay: self-splicing fitness, log relative to wild type (ln ratio); higher = more splicing; Tetrahymena group I intron in knt gene, E. coli kanamycin selection, DiMSum; sequences stand for … in CUCUCU…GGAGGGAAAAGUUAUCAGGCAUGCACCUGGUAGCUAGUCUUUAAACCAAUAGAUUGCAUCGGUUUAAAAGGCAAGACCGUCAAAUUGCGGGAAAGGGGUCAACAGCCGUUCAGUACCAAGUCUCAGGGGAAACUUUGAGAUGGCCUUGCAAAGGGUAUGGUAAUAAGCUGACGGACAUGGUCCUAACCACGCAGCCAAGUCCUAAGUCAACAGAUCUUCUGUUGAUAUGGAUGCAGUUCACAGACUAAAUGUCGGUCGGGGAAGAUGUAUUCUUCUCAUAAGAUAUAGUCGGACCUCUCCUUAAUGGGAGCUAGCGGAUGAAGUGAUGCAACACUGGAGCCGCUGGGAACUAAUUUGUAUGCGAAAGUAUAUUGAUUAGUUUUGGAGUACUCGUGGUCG; settings: 37 °C

| residueSequence | self-splicing fitness (ln) |
| --- | --- |
| GUAGAGCAAUAUUACGGUGC | -1 |
| GAUAAGCAAUAUUACGAUGG | -0.54 |
| GGCAAGCAAUAUUACGAUUU | 0.164 |
| UUAGAGCAAUAUUACGGAGU | -2.9 |
| GGGUAGCAAUAUUACGGAGG | -0.988 |
| CUGGAGCAAUAUUACGUUUC | -2.38 |
| CGCGAGCAAUAUUACGGGCA | -0.0497 |
| AGUGAGCAAUAUUACGUUUG | -2.8 |
| CUGAAGCAAUAUUACGGGGC | -2.56 |
| AACAAGCAAUAUUACGAUUU | 0.672 |
| ACUCAGCAAUAUUACGGCGA | -0.93 |
| GGUCAGCAAUAUUACGACCU | -2.07 |
| UUACAGCAAUAUUACGAACA | -1.07 |
